Where these numbers come from: ChEMBL document CHEMBL1127837

- Tested on: LoVo/DX (Homo sapiens)
- PROTOCOL TEXT: Tested in vitro for cytotoxic activity against Doxorubicin resistant Human colon Adenocarcinoma cell line
Rule: IC50 below 30 µg/mL gives rule met. Equal to or above 30 µg/mL gives rule not met.

Recorded results for 3 compounds are shown here.
CC(C)NCCNc1ccc(NCCNC(C)C)c2c1C(=O)c1ccncc1C2=O rule met
CN(C)CCNc1ccc(NCCN(C)C)c2c1C(=O)c1ccncc1C2=O rule met
O=C1c2ccccc2C(=O)c2c(NCCNCCO)ccc(NCCNCCO)c21 rule not met

Prompt: Input `O=C1c2c(O)ccc(O)c2C(=O)c2c(NCCNCCO)ccc(NCCNCCO)c21` ; condition: IC50 strictly below 30 µg/mL. Does it hold?
Response: rule met

Prompt: A record lists `O=C1c2ccncc2C(=O)c2c(NCCOCCO)ccc(NCCOCCO)c21` . Is its IC50 below 30 µg/mL?
Response: rule not met

----------
T/C: recorded values
- Test system: P388
- PROTOCOL TEXT: Tested for antitumor activity against P388 murine leukemia
- Assay type: functional, Mus musculus
The reply should contain only the number, in %.

CCN(CC)CCNc1ccc(NCCN(CC)CC)c2c1C(=O)c1ccncc1C2=O 122

Please turn your attention to the following entry.
Prompt: Using the record for `NCCNc1ccc(NCCN)c2c1C(=O)c1cc[n+]([O-])cc1C2=O` , report its T/C.
Response: 200

----------
# IC50 per record follows
- Test system: LoVo
- PROTOCOL TEXT: Tested in vitro for cytotoxic activity against Human colon Adenocarcinoma sensitive cell line (LoVo)
- Assay type: functional, cell-based
Give a bare numeral; the unit µg/mL is implied.

Recorded IC50, per entry:
NCCNc1ccc(NCCN)c2c1C(=O)c1ccncc1C2=O 0.24
CCCNCCNc1ccc(NCCNCCC)c2c1C(=O)c1ccncc1C2=O 0.2
CN(C)CCCNc1ccc(NCCCN(C)C)c2c1C(=O)c1ccncc1C2=O 0.15
CCN(CC)CCNc1ccc(NCCN(CC)CC)c2c1C(=O)c1ccncc1C2=O 0.29
NCCNc1ccc(NCCN)c2c1C(=O)c1cc[n+]([O-])cc1C2=O 7.3
O=C1c2ccccc2C(=O)c2c(NCCNCCO)ccc(NCCNCCO)c21 0.4
O=C1c2ccncc2C(=O)c2c(NCCN3CCOCC3)ccc(NCCN3CCOCC3)c21 5.32
NCCCCNc1ccc(NCCCCN)c2c1C(=O)c1ccncc1C2=O 2.27
CC(C)NCCNc1ccc(NCCNC(C)C)c2c1C(=O)c1ccncc1C2=O 0.3
CN(C)CCNc1ccc(NCCN(C)C)c2c1C(=O)c1cc[n+]([O-])cc1C2=O 0.44

Prompt: Which IC50 is listed for `O=C1c2ccncc2C(=O)c2c(NCCNCCO)ccc(NCCNCCO)c21` ?
Response: 1.3

Prompt: Looking for the measured IC50 of `CC(C)N(CCNc1ccc(NCCN(C(C)C)C(C)C)c2c1C(=O)c1ccncc1C2=O)C(C)C` , can you help?
Response: 2.5

----------
- Species on record: Mus musculus
- PROTOCOL TEXT: The compound was tested for antitumor activity against P388 murine leukemia by measuring maximum tolerated dose
- Format: ADME, organism-based
- RECORDED CONDITIONS: in vivo
METRIC: maximum tolerated dose (mg/kg/day)
Quick reminder: number only, in mg/kg/day, skip the unit.

Prompt: maximum tolerated dose lookup needed for `Cl.NCCNc1ccc(NCCN)c2c1C(=O)c1ccncc1C2=O` , thanks.
Response: 27

----------
- PROTOCOL TEXT: The compound was tested for antitumor activity against P388 murine leukemia by measuring maximum tolerated dose
- Format: ADME, organism-based
- RECORDED CONDITIONS: mouse, in vivo; read-out: LD10
METRIC: MTD (mg/kg/day)
Unit mg/kg/day implied. Number only.

Prompt: May I ask what MTD has been recorded for `NCCCCNc1ccc(NCCCCN)c2c1C(=O)c1ccncc1C2=O` ?
Response: 35

Prompt: So what does the record say about MTD for `O=C1c2ccncc2C(=O)c2c(NCCN3CCCC3)ccc(NCCN3CCCC3)c21` ?
Response: 60

Prompt: # get_value(readout='MTD', item= `NCCCNc1ccc(NCCCN)c2c1C(=O)c1ccncc1C2=O` )
Response: 40

Prompt: Which measured MTD value corresponds to `O=C1c2ccncc2C(=O)c2c(NCCNCCO)ccc(NCCNCCO)c21` ?
Response: 40

Prompt: Param item = `COc1cccc2c1C(=O)c1c(O)c3c(c(O)c1C2=O)C[C@@](O)(C(=O)CO)C[C@@H]3O[C@H]1C[C@H](N)[C@H](O)[C@H](C)O1` ; retrieve measured MTD.
Response: 7.5

----------
- Test system: LoVo/DX (Homo sapiens)
- PROTOCOL TEXT: Tested in vitro for cytotoxic activity against Doxorubicin resistant Human colon Adenocarcinoma cell line
METRIC: IC50

NCCCNc1ccc(NCCCN)c2c1C(=O)c1ccncc1C2=O 54.5 µg/mL

Prompt: I would be grateful if you could share the reported IC50 for `CCCNCCNc1ccc(NCCNCCC)c2c1C(=O)c1ccncc1C2=O` .
Response: 2.8 µg/mL

Prompt: Form field: reported IC50 of `CN(C)CCCNc1ccc(NCCCN(C)C)c2c1C(=O)c1ccncc1C2=O`
Response: 0.36 µg/mL

Prompt: Need IC50 of `O=C1c2ccncc2C(=O)c2c(NCCN3CCOCC3)ccc(NCCN3CCOCC3)c21` , thanks.
Response: 2.3 µg/mL

Prompt: Requested read-out: IC50. Entry: `COc1cccc2c1C(=O)c1c(O)c3c(c(O)c1C2=O)C[C@@](O)(C(=O)CO)C[C@@H]3O[C@H]1C[C@H](N)[C@H](O)[C@H](C)O1`
Response: 4 µg/mL

Prompt: // IC50 lookup, key: `NCCCCNc1ccc(NCCCCN)c2c1C(=O)c1ccncc1C2=O`
Response: 0.83 µg/mL

Prompt: What value of IC50 has been reported for the following compound? `NCCNc1ccc(NCCN)c2c1C(=O)c1cc[n+]([O-])cc1C2=O`
Response: 62.6 µg/mL

Prompt: Value lookup for IC50; key = `CC(C)N(CCNc1ccc(NCCN(C(C)C)C(C)C)c2c1C(=O)c1ccncc1C2=O)C(C)C`
Response: 2.8 µg/mL

Prompt: Look at this compound and give its reported IC50. `CCN(CC)CCNc1ccc(NCCN(CC)CC)c2c1C(=O)c1ccncc1C2=O`
Response: 0.69 µg/mL

Prompt: # input compound: `O=C1c2ccncc2C(=O)c2c(NCCNCCO)ccc(NCCNCCO)c21` ; wanted: its IC50
Response: 99.5 µg/mL

----------
Below is a list of entries, each paired with its recorded IC50 value.
- System: LoVo/DX (Homo sapiens)
- PROTOCOL TEXT: Tested in vitro for cytotoxic activity against Doxorubicin resistant Human colon Adenocarcinoma cell line

Recorded IC50, per entry:
CNCCNc1ccc(NCCNC)c2c1C(=O)c1ccncc1C2=O.Cl 2.9 µg/mL
CN(C)CCNc1ccc(NCCN(C)C)c2c1C(=O)c1cc[n+]([O-])cc1C2=O 2.6 µg/mL
O=C1c2ccncc2C(=O)c2c(NCCN3CCCC3)ccc(NCCN3CCCC3)c21 0.7 µg/mL

Turning now to a further molecule:
Prompt: Entry `NCCNc1ccc(NCCN)c2c1C(=O)c1ccncc1C2=O` : reported IC50 = ?
Response: 7.2 µg/mL

----------
- System: P388
- PROTOCOL TEXT: Tested for antitumor activity against P388 murine leukemia
- Assay type: functional, Mus musculus
Listing of recorded T/C by entry.
Respond numerically; units are % and should not be typed.

These solved cases illustrate the format of a correct answer.
MOLECULE	METRIC	SCALE UNIT	TEST VALUE
CN(C)CCNc1ccc(NCCN(C)C)c2c1C(=O)c1cc[n+]([O-])cc1C2=O	T/C	%	122
O=C1c2ccncc2C(=O)c2c(NCCNCCO)ccc(NCCNCCO)c21	T/C	%	118
NCCCNc1ccc(NCCCN)c2c1C(=O)c1ccncc1C2=O	T/C	%	155
O=C1c2ccncc2C(=O)c2c(NCCN3CCOCC3)ccc(NCCN3CCOCC3)c21	T/C	%	122
O=C1c2ccccc2C(=O)c2c(NCCNCCO)ccc(NCCNCCO)c21 [AMETANTRONE]	T/C	%	127

Prompt: Sample `CNCCNc1ccc(NCCNC)c2c1C(=O)c1ccncc1C2=O.Cl` — what was its T/C?
Response: 189

Prompt: What value of measured T/C is listed for `O=C1c2ccncc2C(=O)c2c(NCCN3CCCC3)ccc(NCCN3CCCC3)c21` ?
Response: 100

Prompt: For the molecule COc1cccc2c1C(=O)c1c(O)c3c(c(O)c1C2=O)C[C@@](O)(C(=O)CO)C[C@@H]3O[C@H]1C[C@H](N)[C@H](O)[C@H](C)O1 [DOXORUBICIN] , what T/C is on record?
Response: 181

----------
- Test system: LoVo
- PROTOCOL TEXT: Tested in vitro for cytotoxic activity against Human colon Adenocarcinoma sensitive cell line (LoVo)
- Type: functional, cell-based
METRIC: IC50
Field note: include the unit after the figure.

# count of solved cases: 6
COMPOUND	IC50
O=C1c2ccncc2C(=O)c2c(NCCN3CCCC3)ccc(NCCN3CCCC3)c21	0.5 µg/mL
NCCCNc1ccc(NCCCN)c2c1C(=O)c1ccncc1C2=O	2.1 µg/mL
O=C1c2c(O)ccc(O)c2C(=O)c2c(NCCNCCO)ccc(NCCNCCO)c21 [MITOXANTRONE]	0.009 µg/mL
CN(C)CCNc1ccc(NCCN(C)C)c2c1C(=O)c1ccncc1C2=O	0.076 µg/mL
COc1cccc2c1C(=O)c1c(O)c3c(c(O)c1C2=O)C[C@@](O)(C(=O)CO)C[C@@H]3O[C@H]1C[C@H](N)[C@H](O)[C@H](C)O1 [DOXORUBICIN]	0.03 µg/mL
O=C1c2ccncc2C(=O)c2c(NCCOCCO)ccc(NCCOCCO)c21	8.7 µg/mL

Now turn to the next compound.
Prompt: // returns reported IC50 for input `CNCCNc1ccc(NCCNC)c2c1C(=O)c1ccncc1C2=O.Cl`
Response: 0.08 µg/mL
